Entry source: patent US20230295324A1

Molecular target: T1, human OX40 on cells (CHO-K1/hu OX40) (human, UniProt P43489 29-277)
T1 construct: whole, on cells; Also used here for OX40 on the HEK293/OX40/NF-kb reporter cells and on human T cells in the functional assays; also called CHO-K1/OX40; human OX40 cells
T1 sequence (looked up): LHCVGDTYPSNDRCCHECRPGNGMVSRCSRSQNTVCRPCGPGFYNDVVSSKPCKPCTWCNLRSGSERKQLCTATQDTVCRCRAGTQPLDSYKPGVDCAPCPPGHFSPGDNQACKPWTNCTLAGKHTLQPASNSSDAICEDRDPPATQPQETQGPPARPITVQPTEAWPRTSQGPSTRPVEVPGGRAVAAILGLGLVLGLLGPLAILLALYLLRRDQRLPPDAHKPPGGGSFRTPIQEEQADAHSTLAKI
Assay: FACS, blocking of biotin-human OX40L on CHO-K1/hu OX40 cells

- binder: "PR002071 (antibody, human IgG1, V domains shown, no light chain; also called anti-OX40 HCAb antibody) VH: EVQLVESGGGLVQPGGSLRLSCAASGFTFSSYAMSWVRQAPGKGLEWVSAISGGGGSIFYADSVRGRFTISRDNSKNTLYLQMNSLRAEDTAVYYCANGMTGTTDVDYWGQGTLVTVSS"
  IC50 (nM): 51.7
- binder: "PR002069 (antibody, human IgG1, V domains shown, no light chain; also called anti-OX40 HCAb antibody) VH: EVQLLESGGGLVQPGGSLRLSCAASGFTFSSYAMSWVRQAPGKGREWVSAISGGGGNTFYADSVRGRFTISRDNSKNTLYLQMNSLRAEDTAVYYCANGVTGTTDVDYWGQGTLVTVSS"
  IC50 (nM): 50.9
- binder: "PR002055 (antibody, human IgG1, V domains shown, no light chain; also called anti-OX40 HCAb antibody) VH: EVQLLESGGGLVQPGGSLRLSCAASGLTFSSYAMSWVRQAPGKGLEWISAISGGGGSTYYADSVRGRFTISRDNSKNTLYLQMNSLRAEDTAVYYCANGMTGSTDVDYWGQGTLVTVSS"
  IC50 (nM): 59.9
- binder: "PR002070 (antibody, human IgG1, V domains shown, no light chain; also called anti-OX40 HCAb antibody) VH: EVQLLESGGGLVQPGGSLRLSCIASGFSFSSYAMSWVRQAPGKGLEWVSAISGRGGSTFYADSVRGRFNISRDNSKNTLYLQMNSLRVEDTAVYYCANGMTGTTDVDYWGQGTLVTVSS"
  IC50 (nM): 67.6
